test system: MDA-MB-435 melanoma; test: NCI-60 one-dose screen, 48 h (100 = growth as untreated, 0 = no growth, -100 = all killed); conditions: 10 µM unless noted
About 83,000 compounds went through this panel and 20% of them were active in at least one assay; those are over-represented in the sample as a whole.
I'd appreciate it if you marked entries true (1) when growth is lower than 70% and false (0) when it is not.

Report whether reported growth is lower than 70% (strictly) for CO[C@H](C(=O)[C@@H](O)[C@@H](C)O)[C@@H]1Cc2cc3cc(O[C@H]4C[C@@H](O[C@H]5C[C@@H](O)[C@H](O)C(C)O5)[C@H](O)C(C)O4)c(C)c(O)c3c(O)c2C(=O)[C@H]1O[C@H]1C[C@@H](O[C@H]2C[C@@H](O[C@H]3C[C@@H](OC)[C@H](O)C(C)O3)[C@@H](O)C(C)O2)C(O)(O)C(C)O1 (some centres not stated) true (1)

Report whether reported growth is lower than 70% (strictly) for COC(=O)C1=Nc2ccc(F)cc2/C1=C\c1sc(Nc2ccc(O)cc2)nc1O true (1)

Report whether reported growth is lower than 70% (strictly) for O[C@@H](c1cc(C(F)(F)F)nc2c(C(F)(F)F)cccc12)[C@H]1CCCCN1 false (0)

Report whether reported growth is lower than 70% (strictly) for Cc1cc(F)ccc1S(=O)(=O)Nc1cc(-c2c(O)ccc3ccccc23)c(O)c2ccccc12 true (1)

Report whether reported growth is lower than 70% (strictly) for COc1cc(/C=C\c2cc(/C=C\c3ccc(O)c(OC)c3)n(C(=O)CNc3ccc(Cl)cc3)n2)ccc1O true (1)

Report whether reported growth is lower than 70% (strictly) for CC[C@]12C=CCN3CC[C@@]4(c5ccc(OC)cc5N(C)[C@H]4[C@@](O)(C(=O)OC)[C@@H]1OC(=O)CCCN1CCOCC1)[C@@H]32 false (0)

Report whether reported growth is lower than 70% (strictly) for CCCCCCC(CCCC)COC(=O)c1ccc(Cl)cc1 (configuration not stated) false (0)

Report whether reported growth is lower than 70% (strictly) for CCCCCCCCNc1cc2c3c(c1)CCCN3CCC2 true (1)

Report whether reported growth is lower than 70% (strictly) for O=C(CN1CCN(c2cc3c(cc2F)c(=O)c(C(=O)O)cn3C2CC2)CC1)N/N=C/c1ccncc1 false (0)

Report whether reported growth is lower than 70% (strictly) for CC1(C)CCC(S(=O)(=O)c2ccc3c(c2)/C(=N\O)c2cc(S(=O)(=O)N4CCN(c5ccc(F)cc5O)CC4)ccc2-3)CC1 true (1)

Report whether reported growth is lower than 70% (strictly) for C#CCn1cnc2c(Nc3cccc(NC(=O)CCl)c3)ncnc21 true (1)

Report whether reported growth is lower than 70% (strictly) for C=C1C(=O)O[C@H]2[C@H]1CC/C(COC(=O)/C=C\C(=O)NCc1ccc(Cn3c(=O)sn(-c4ccccc4)c3=O)cc1)=C\CC[C@@]1(C)O[C@@H]21 true (1)

Report whether reported growth is lower than 70% (strictly) for C=C1C(=O)O[C@H]2[C@H]1CC/C(Cn1cc(-c3cc(C(F)(F)F)cc(C(F)(F)F)c3)nn1)=C\CC[C@@]1(C)O[C@@H]21 true (1)

Report whether reported growth is lower than 70% (strictly) for CN1CCN(CCOc2ccc(-c3cnc4c(-c5ccc(C(F)(F)F)cc5)cnn4c3)cc2)CC1 true (1)

Report whether reported growth is lower than 70% (strictly) for N#C/C(=C\c1ccc(-c2ccc(Cl)cc2)o1)c1ccc(Cl)cc1 false (0)

Report whether reported growth is lower than 70% (strictly) for CC1=C(C(=O)n2c3ccccc3c3ccccc32)C(c2cccc([N+](=O)[O-])c2)C(C(=O)n2c3ccccc3c3ccccc32)=C(C)N1 false (0)

Report whether reported growth is lower than 70% (strictly) for C[C@@H]1O[C@@H](O[C@@H]2C[C@H](c3ccc4c(c3O)C(=O)C3=C(C4=O)[C@@]4(O)C(=O)C[C@](C)(O)C[C@@]4(O)C=C3)O[C@H](C)[C@H]2O)C[C@H](O)[C@@H]1O false (0)

Report whether reported growth is lower than 70% (strictly) for Cc1[nH]c(/C=C/C(=O)c2ccc(C(F)(F)F)c(F)c2)c(C)c1C(=O)NCC(C)C false (0)

Report whether reported growth is lower than 70% (strictly) for C=NNc1ccccc1 false (0)

Report whether reported growth is lower than 70% (strictly) for COc1ccc2c(O)c(/C=C3\N=Nc4ccccc43)oc2c1C[C@H]1CCNC[C@H]1F true (1)

Report whether reported growth is lower than 70% (strictly) for Oc1c(CN2CCCC2)cc(COCc2ccccc2)c2cccnc12 true (1)

Report whether reported growth is lower than 70% (strictly) for CS(=O)(=O)Nc1cc(-c2ccc3ncnc(Nc4ccc5c(cnn5Cc5cccnc5)c4)c3c2)cnc1Cl true (1)

Report whether reported growth is lower than 70% (strictly) for COc1cc2c(c(OC)c1OC)C(=O)CC(c1cccc(NC(=O)c3ccccc3Br)c1)O2 (configuration not stated) false (0)

Report whether reported growth is lower than 70% (strictly) for COc1ccc2cc(Cn3cc[n+](Cc4ccc5ccccc5c4)c3)ccc2c1 true (1)

Report whether reported growth is lower than 70% (strictly) for O=C(NCc1ccccc1O)c1cccc2ccccc12 false (0)

Report whether reported growth is lower than 70% (strictly) for COc1ccc(Nc2ncccc2NC(=O)c2cn(Cc3cccc(Oc4ccccc4)c3)nn2)cc1OC true (1)

Report whether reported growth is lower than 70% (strictly) for O=C(N/N=C/c1ccc(Cl)cc1Cl)c1ccc2nc(-c3ccc(Cl)cc3)[nH]c2c1 true (1)

Report whether reported growth is lower than 70% (strictly) for COc1ccc(/C=C/C(=O)c2ccc(Nc3nc(Nc4ccc(F)cc4)nc(Nc4ccc(Cl)cc4)n3)cc2)cc1 false (0)

Report whether reported growth is lower than 70% (strictly) for C[C@@H](CO)[C@@H]1CC[C@]2(C(=O)N3CCN(C)CC3)CC[C@]3(C)[C@H](CC[C@@H]4[C@@]5(C)CC[C@H](O)C(C)(C)[C@@H]5CC[C@]43C)[C@@H]12 false (0)

Report whether reported growth is lower than 70% (strictly) for N#C/C(=C\c1ccc(Br)cc1)c1cc2ccccc2[nH]1 false (0)

Report whether reported growth is lower than 70% (strictly) for Cc1c2cnccc2c(C)c2c1c1cc(C3OCCCO3)ccc1n2C true (1)

Report whether reported growth is lower than 70% (strictly) for c1ccc2cc(Cn3c[n+](Cc4ccc5ccccc5c4)c4ccccc43)ccc2c1 true (1)
